Molecular target: A2A (h) (Homo sapiens, UniProt P29274)
Construct: purchased Eurofins Cerep (SafetyScreen44), recognised from the panel format
Sequence (P29274 whole entry): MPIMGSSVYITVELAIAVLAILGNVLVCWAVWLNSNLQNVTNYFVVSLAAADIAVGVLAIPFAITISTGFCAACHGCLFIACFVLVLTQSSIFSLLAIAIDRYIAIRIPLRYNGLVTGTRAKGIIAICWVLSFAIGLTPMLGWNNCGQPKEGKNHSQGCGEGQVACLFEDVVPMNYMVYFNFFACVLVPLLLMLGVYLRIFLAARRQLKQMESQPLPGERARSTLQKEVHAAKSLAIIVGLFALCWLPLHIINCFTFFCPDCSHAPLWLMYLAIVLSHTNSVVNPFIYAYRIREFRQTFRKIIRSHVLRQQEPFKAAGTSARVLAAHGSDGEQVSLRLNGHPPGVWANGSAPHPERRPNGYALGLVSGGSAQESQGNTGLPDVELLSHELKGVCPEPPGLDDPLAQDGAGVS
Assay: In vitro CEREP profiling, A2A (h) (agonist radioligand)
Format: binding
Details: test compound 10 uM
Observable: perc_inhibition (% inhibition of the binding of a ligand specific for each target)
Answer with the figure and its unit, nothing else.

Some solved entries appear below for comparison.
Smiles structure: CC(C)[C@H](Nc1ncnc2[nH]ccc12)c1ccc2c(c1)S(=O)(=O)CCC2
Observed value: 11%

Smiles structure: C[C@H](C(=O)O)[C@@H](NC(=O)c1ncnc2[nH]ccc12)c1ccc(Br)cc1
Observed value: -14%

Smiles structure: COc1ccc([C@H](Cc2nnn[nH]2)NC(=O)c2ncnc3[nH]ccc23)cc1
Observed value: -13%

Smiles structure: CNCc1cc(-c2cc3c(N[C@@H](c4ccc5c(c4)S(=O)(=O)CCC5)C(C)C)ncnc3[nH]2)co1
Observed value: 21%

Smiles structure: CC(C)[C@H](Nc1ncnc2[nH]c(-c3cnn(C)c3C#N)cc12)c1ccc2c(n1)OCCO2
Observed value: 84%

Please state, for each entry, its recorded perc_inhibition (% inhibition of the binding of a ligand specific for each target).
1. CC(C)[C@@H](Nc1ncnc2[nH]c(-c3cnn(C)c3C#N)cc12)c1ccc2c(n1)OCCO2
2. Cn1ncc(-c2cc3c(N[C@@H](c4ccc5c(n4)OCCO5)C(C)(C)C)ncnc3[nH]2)c1C#N

Result:
1. 69%
2. 52%
